# Tested on: various lung cancer cell lines
# Experiment Summary: Long term proliferation (LTP) assay in various cancer cell lines
# Format: cell-based
# Run Conditions: Homo sapiens, HCC44, HCC44; SMARCA4 protein Present; Lung NSCLC adenocarcinoma
pIC50: −log10 of the molar value.
Reported Property: pIC50

(P) N#Cc1sc(C(=O)Nc2cc(F)c(=O)n(CCF)c2)cc1Cl
(Q) O=C(Nc1cc(F)c(=O)n(CC(F)F)c1)c1cc(Cl)c(C(F)(F)F)s1
Asked: Sorting ascending by pIC50, which comes first: P or Q ? Select an item and report its label.
Given back: Q

====

# Subject Of Test: FL-SMARCA4 (Homo sapiens)
# Sequence (P51532 whole entry): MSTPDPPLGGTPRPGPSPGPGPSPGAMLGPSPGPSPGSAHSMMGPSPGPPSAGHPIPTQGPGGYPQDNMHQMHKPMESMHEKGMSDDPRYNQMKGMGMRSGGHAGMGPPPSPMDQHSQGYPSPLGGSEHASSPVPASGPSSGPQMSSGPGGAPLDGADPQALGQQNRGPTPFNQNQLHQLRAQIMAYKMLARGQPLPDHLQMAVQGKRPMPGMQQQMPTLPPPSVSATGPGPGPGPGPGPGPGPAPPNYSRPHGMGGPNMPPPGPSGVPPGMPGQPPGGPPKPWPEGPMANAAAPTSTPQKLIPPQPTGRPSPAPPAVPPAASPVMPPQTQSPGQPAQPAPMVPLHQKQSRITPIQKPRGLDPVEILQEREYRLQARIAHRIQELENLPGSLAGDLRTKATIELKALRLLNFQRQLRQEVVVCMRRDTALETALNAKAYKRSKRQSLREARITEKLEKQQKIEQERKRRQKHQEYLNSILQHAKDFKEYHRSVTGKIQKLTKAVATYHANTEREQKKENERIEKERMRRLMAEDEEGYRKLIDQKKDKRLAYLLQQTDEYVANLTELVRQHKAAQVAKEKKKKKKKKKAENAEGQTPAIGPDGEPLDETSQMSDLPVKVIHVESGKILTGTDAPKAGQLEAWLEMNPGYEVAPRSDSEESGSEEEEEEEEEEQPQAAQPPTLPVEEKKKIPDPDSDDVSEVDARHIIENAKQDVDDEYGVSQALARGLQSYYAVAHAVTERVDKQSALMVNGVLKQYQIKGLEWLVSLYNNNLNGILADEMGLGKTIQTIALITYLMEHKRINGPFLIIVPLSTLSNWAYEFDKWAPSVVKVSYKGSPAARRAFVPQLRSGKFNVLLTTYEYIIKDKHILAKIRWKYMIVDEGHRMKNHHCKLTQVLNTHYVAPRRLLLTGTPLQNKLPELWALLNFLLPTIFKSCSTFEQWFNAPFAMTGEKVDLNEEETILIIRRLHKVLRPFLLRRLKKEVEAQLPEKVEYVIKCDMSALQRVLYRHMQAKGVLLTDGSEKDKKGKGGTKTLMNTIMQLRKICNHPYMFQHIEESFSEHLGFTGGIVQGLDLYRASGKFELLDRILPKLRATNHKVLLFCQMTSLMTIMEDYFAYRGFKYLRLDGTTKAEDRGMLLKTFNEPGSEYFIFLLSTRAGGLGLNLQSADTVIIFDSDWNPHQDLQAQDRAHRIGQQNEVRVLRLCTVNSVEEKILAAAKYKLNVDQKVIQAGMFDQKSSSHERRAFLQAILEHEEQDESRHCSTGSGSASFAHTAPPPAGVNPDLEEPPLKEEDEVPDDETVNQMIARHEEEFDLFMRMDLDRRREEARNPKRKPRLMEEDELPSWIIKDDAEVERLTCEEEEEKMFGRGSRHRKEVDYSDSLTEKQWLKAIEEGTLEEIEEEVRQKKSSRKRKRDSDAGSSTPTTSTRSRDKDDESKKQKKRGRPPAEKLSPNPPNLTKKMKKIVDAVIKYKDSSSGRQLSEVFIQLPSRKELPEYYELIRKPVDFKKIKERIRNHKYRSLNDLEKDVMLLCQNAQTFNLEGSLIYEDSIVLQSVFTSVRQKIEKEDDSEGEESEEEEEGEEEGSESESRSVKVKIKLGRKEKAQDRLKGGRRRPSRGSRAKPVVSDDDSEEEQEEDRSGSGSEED
# Experiment Summary: SMARCA4 ATPase activity assay (ADP-Glo, chicken mononucleosome substrate)
# Run Conditions: FL-SMARCA4 IC50
Reported Property: IC50 (nM)

These recorded examples may help you get a feel for the data.
{"Compound": "O=C(Nc1cc(F)c(=O)n(CC(F)F)c1)c1cc(C#CCn2cccn2)c(Cl)s1 [Compound 123d]", "Reported Property": "IC50", "Unit String": "nM", "Numeric Value": 1580}
{"Compound": "O=C(Nc1cc(F)c(=O)n(CC(F)F)c1)c1cc(C#CC2CCn3cnnc3C2)c(Cl)s1 (centres unmarked) [Compound 119d]", "Reported Property": "IC50", "Unit String": "nM", "Numeric Value": 2220}
{"Compound": "O=C(Nc1cc(F)c(=O)n(CC(F)F)c1)c1cc(C#Cc2cn3c(n2)COCC3)c(Cl)s1 [Compound 90d]", "Reported Property": "IC50", "Unit String": "nM", "Numeric Value": 2710}
{"Compound": "O=C(Nc1cc(F)c(=O)n(CC(F)F)c1)c1cc(C#CCn2cncn2)c(Cl)s1 [Compound 127d]", "Reported Property": "IC50", "Unit String": "nM", "Numeric Value": 1450}

(a) O=C(Nc1cc(F)c(=O)n(CC(F)F)c1)c1cc(C#CC2CCCOC2)c(Cl)s1 (centres unmarked) [Compound 68d]
(b) O=C(Nc1cc(F)c(=O)n(CC(F)F)c1)c1cc(-c2ccco2)c(Cl)s1 [Compound 112d]
Asked: Sorting ascending by IC50, which comes first: a or b ? Select an item and report its label.
Given back: a

Each recorded value in this set is attributed to patent US20220356174A1.
